biological target: hERG (Homo sapiens, UniProt Q12809); experiment: Inhibition of human ERG at 3 uM by patch clamp assay relative to control; format: toxicity
Sequence (Q12809 whole entry): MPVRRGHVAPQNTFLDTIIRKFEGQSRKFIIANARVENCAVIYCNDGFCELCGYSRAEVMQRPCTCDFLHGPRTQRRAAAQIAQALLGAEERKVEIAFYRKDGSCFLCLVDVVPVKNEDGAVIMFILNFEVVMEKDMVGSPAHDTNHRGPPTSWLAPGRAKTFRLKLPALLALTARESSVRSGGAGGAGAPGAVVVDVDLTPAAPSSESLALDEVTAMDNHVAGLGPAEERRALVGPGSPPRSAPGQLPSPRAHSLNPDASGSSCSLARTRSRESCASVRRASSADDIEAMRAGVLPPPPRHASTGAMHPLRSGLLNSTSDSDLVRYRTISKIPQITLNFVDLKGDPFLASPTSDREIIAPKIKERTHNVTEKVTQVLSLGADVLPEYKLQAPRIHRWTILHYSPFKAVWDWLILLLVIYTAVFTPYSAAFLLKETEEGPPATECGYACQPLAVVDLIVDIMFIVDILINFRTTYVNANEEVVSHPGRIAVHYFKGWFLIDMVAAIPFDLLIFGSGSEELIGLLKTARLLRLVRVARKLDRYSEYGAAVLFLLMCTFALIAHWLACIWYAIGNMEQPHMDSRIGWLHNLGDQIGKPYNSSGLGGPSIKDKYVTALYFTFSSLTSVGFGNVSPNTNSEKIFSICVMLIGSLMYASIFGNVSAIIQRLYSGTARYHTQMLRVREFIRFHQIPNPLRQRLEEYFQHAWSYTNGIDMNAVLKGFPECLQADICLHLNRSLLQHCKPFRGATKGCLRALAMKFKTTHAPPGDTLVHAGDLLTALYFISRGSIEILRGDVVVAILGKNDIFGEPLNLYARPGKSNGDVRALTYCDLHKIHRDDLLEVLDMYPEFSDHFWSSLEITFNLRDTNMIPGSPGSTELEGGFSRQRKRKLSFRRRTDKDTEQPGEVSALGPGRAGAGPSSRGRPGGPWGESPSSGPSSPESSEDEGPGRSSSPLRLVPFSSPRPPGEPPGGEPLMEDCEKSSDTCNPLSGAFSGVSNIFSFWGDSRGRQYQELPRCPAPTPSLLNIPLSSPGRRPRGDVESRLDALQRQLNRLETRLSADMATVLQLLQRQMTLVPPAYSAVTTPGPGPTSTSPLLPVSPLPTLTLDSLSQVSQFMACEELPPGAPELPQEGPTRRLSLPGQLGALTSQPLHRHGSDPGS
Property label: inhibition at 3 µM (%)
Reply numerically in %, unit not repeated.

Exercise: Provide inhibition at 3 µM value for the following compound: `C[C@@H](C1CC1)N1Cc2cc(-c3ccn4nc(N)c(C(=O)N[C@H]5CC[C@](O)(C(F)(F)F)CC5)c4n3)cc(NS(C)(=O)=O)c2C1=O`
Key: 45

====

test: Half life in Sprague-Dawley rat at 1 mg/kg, iv measured up to 8 hrs by LC-MS/MS analysis; type: ADME, organism-based; conditions: in vivo
Catalogue of half-life values
Report the figure in h without appending any unit label.

INSERT INTO results (chemical_smiles, property_label, observed_value) VALUES
  ('C[C@@H](C1CC1)N1Cc2cc(-c3ccn4nc(N)c(C(=O)N[C@H]5CC[C@@](C)(O)CC5)c4n3)cc(OC(F)(F)F)c2C1=O', 'half-life', 2.17);

Now turn to the next compound.
Exercise: Please supply the value of reported half-life for the item `C[C@@H](C1CC1)N1Cc2cc(-c3ccn4nc(N)c(C(=O)N[C@H]5CC[C@@](C)(O)CC5)c4n3)cc(OC(F)F)c2C1=O`
Key: 1.89

====

organism: Homo sapiens; test: Selectivity ratio of IC50 for inhibition of PI3Kalpha (unknown origin) to IC50 for inhibition of PI3Kgamma (unknown origin)
Binary call on Ratio IC50 with cut-off 500: strictly below means yes, and equality or higher means no.

These recorded examples may help you get a feel for the data.
INSERT INTO results (chemical_smiles, label) VALUES
  ('C[C@@H](C1CC1)N1Cc2cc(-c3ccn4nc(N)c(C(=O)NC5CC5)c4n3)cc(S(=O)(=O)C3CC3)c2C1=O', 'yes'),
  ('C[C@@H](C1CC1)N1Cc2cc(-c3ccn4nc(N)c(C(=O)N[C@H]5CC[C@@](C)(O)CC5)c4n3)cc(OC(F)F)c2C1=O', 'no');

Exercise: Dear colleague, could you confirm whether Ratio IC50 of `Cc1cc(-c2ccn3nc(N)c(C(=O)N[C@H]4CC[C@@](C)(O)CC4)c3n2)cc2c1C(=O)N([C@@H](C)C1CC1)C2` falls below 500? Thanks.
Key: no

Exercise: For this compound, is Ratio IC50 lower than 500? `Cc1cc(-c2ccn3nc(N)c(C(=O)N[C@H]4CNC(=O)C4)c3n2)cc2c1C(=O)N([C@@H](C)C1CC1)C2`
Key: no

Exercise: Check if Ratio IC50 falls below 500 for `CC(C)c1cc(-c2ccn3nc(N)c(C(=O)NC4CC4)c3n2)cc2c1C(=O)N([C@@H](C)C1CC1)C2` .
Key: yes

Exercise: Consider the compound `Cc1cc(-c2ccn3nc(N)c(C(=O)N[C@H]4CC[C@H](C(=O)O)CC4)c3n2)cc2c1C(=O)N([C@@H](C)C1CC1)C2` . Is its Ratio IC50 strictly less than 500?
Key: yes

Exercise: Dear reviewer, please state whether `Cc1cc(-c2ccn3nc(N)c(C(=O)NC4CC4)c3n2)cc2c1C(=O)N([C@@H](C1CC1)C(F)(F)F)C2` has Ratio IC50 strictly beneath 500.
Key: no

Exercise: Is Ratio IC50 of `C[C@@H](C1CC1)N1Cc2cc(-c3ccn4nc(N)c(C(=O)N[C@H]5CC[C@@](C)(O)CC5)c4n3)cc(OC(F)(F)F)c2C1=O` strictly below 500?
Key: no

Exercise: Does the reported Ratio IC50 of the following compound sit strictly below 500? `C[C@H](N1Cc2cc(-c3ccn4nc(N)c(C(=O)N[C@@H](CO)C5CC5)c4n3)cc(NS(C)(=O)=O)c2C1=O)C(F)(F)F`
Key: yes

Exercise: Is 500 strictly greater than the compound's reported Ratio IC50? compound: `C[C@@H](C1CC1)N1Cc2cc(-c3ccn4nc(N)c(C(=O)NC5CC5)c4n3)cc(OC(F)F)c2C1=O`
Key: yes

Exercise: Take the compound `Cc1cc(-c2ccn3nc(N)c(C(=O)N[C@H]4CC[C@](C)(O)CC4)c3n2)cc2c1C(=O)N([C@@H](C)C1CC1)C2` and say whether its Ratio IC50 is less than 500.
Key: yes

Exercise: Here's an entry: `C[C@@H](C1CC1)N1Cc2cc(-c3ccn4nc(N)c(C(=O)N[C@@H](CO)C5CC5)c4n3)cc(OC(F)F)c2C1=O` . Is its Ratio IC50 below 500?
Key: no

Exercise: Lab log: compare recorded Ratio IC50 with 500; is it strictly lower for `Cc1cc(-c2ccn3nc(N)c(C(=O)N[C@H]4CC[C@H](O)CC4)c3n2)cc2c1C(=O)N([C@@H](C)C1CC1)C2` ?
Key: yes

Exercise: I wonder whether `C[C@@H](C1CC1)N1Cc2cc(-c3ccn4nc(N)c(C(=O)NC5CC5)c4n3)cc(Cl)c2C1=O` has Ratio IC50 below 500. Can you tell?
Key: yes

Exercise: Check if Ratio IC50 falls below 500 for `C[C@@H](C1CC1)N1Cc2cc(-c3ccn4nc(N)c(C(=O)NC5CC5)c4n3)cc(S(C)(=O)=O)c2C1=O` .
Key: yes

====

# Vdss per record follows
test: Volume of distribution at steady state in Beagle dog at 1 mg/kg, iv; assay type: ADME, organism-based, Canis lupus familiaris; settings: in vivo
All answers are understood in L/kg, so give the number only.

INSERT INTO measurements (chemical_smiles, endpoint_unit, observed_value) VALUES
  ('C[C@@H](C1CC1)N1Cc2cc(-c3ccn4nc(N)c(C(=O)N[C@H]5CC[C@@](C)(O)CC5)c4n3)cc(OC(F)F)c2C1=O', 'L/kg', 3.55);

Now, please, on to the next molecule.
Exercise: // Input: `C[C@@H](C1CC1)N1Cc2cc(-c3ccn4nc(N)c(C(=O)N[C@H]5CC[C@@](C)(O)CC5)c4n3)cc(OC(F)(F)F)c2C1=O` . Output its Vdss only.
Key: 3.24

====

target: Phosphatidylinositol 4,5-bisphosphate 3-kinase catalytic subunit gamma isoform (Homo sapiens, UniProt P48736); experiment: Inhibition of PI3Kgamma in SDF-1alpha stimulated human whole blood assessed as reduction in phospho-AKT kinase activity preincubated for 1 hr followed by SDF-1alpha stimulation and measured after 2 mins by flow cytometric analysis; assay type: tissue-based
Sequence (P48736 whole entry, canonical isoform): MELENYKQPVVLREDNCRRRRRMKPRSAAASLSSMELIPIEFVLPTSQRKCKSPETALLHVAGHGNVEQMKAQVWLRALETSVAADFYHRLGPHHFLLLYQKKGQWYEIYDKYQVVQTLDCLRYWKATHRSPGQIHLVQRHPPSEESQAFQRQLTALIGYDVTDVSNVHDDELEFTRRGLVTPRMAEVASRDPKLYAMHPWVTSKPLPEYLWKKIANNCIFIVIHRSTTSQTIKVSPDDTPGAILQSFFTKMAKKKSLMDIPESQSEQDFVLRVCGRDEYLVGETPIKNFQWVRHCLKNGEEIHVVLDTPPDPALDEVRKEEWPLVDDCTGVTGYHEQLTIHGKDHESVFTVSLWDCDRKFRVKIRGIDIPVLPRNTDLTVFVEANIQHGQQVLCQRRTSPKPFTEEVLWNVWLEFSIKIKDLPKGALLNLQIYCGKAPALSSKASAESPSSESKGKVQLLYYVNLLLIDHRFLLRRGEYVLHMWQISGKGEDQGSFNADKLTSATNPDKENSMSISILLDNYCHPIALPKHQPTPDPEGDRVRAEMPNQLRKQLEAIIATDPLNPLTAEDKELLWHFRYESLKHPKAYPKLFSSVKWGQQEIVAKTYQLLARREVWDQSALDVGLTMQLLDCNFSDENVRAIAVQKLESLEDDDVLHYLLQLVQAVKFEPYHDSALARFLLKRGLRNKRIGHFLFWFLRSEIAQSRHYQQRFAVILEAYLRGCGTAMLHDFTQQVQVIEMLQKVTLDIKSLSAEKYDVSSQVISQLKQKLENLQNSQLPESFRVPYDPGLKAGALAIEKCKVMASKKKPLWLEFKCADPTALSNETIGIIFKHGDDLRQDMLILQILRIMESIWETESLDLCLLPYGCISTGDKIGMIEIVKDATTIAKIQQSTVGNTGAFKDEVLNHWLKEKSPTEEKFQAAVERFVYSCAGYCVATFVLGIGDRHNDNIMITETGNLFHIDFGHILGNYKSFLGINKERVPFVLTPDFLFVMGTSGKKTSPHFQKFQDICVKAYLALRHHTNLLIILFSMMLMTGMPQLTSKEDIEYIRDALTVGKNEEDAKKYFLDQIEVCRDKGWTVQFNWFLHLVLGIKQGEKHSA
# key: entry, value: pIC50
Schema: pIC50 number; meaning minus log10 of the concentration expressed in molar units.

These solved cases illustrate the format of a correct answer.
INSERT INTO measurements (chemical_smiles, observed_value) VALUES
  ('C[C@H](N1Cc2cc(-c3ccn4nc(N)c(C(=O)N[C@@H](CO)C5CC5)c4n3)cc(OC(F)F)c2C1=O)C(F)(F)F', 6.22),
  ('C[C@H](N1Cc2cc(-c3ccn4nc(N)c(C(=O)N[C@@H](CO)C5CC5)c4n3)cc(Cl)c2C1=O)C(F)(F)F', 6.22),
  ('C[C@@H](C1CC1)N1Cc2cc(-c3ccn4nc(N)c(C(=O)N[C@H]5CC[C@](C)(O)CC5)c4n3)cc(NS(C)(=O)=O)c2C1=O', 6.38),
  ('C[C@H](N1Cc2cc(-c3ccn4nc(N)c(C(=O)N[C@@H](CO)C5CC5)c4n3)cc(NS(C)(=O)=O)c2C1=O)C(F)(F)F', 5.89),
  ('C[C@@H](C1CC1)N1Cc2cc(-c3ccn4nc(N)c(C(=O)N[C@H]5CC[C@](O)(C(F)(F)F)CC5)c4n3)cc(NS(C)(=O)=O)c2C1=O', 6.68),
  ('C[C@@H](C1CC1)N1Cc2cc(-c3ccn4nc(N)c(C(=O)N[C@H]5CC[C@@](C)(O)CC5)c4n3)cc(OC(F)(F)F)c2C1=O', 6.62),
  ('C[C@@H](C1CC1)N1Cc2cc(-c3ccn4nc(N)c(C(=O)N[C@@H](CO)C5CC5)c4n3)cc(OC(F)(F)F)c2C1=O', 6.12);

Exercise: Provide only the value of recorded pIC50 for `C[C@H](N1Cc2cc(-c3ccn4nc(N)c(C(=O)N[C@@H](CO)C5CC5)c4n3)cc(C3CC3)c2C1=O)C(F)(F)F`
Key: 5.89

====

test: Volume of distribution at steady state in cynomolgus monkey at 1 mg/kg, iv; format: ADME, organism-based, Macaca fascicularis; conditions: in vivo
Property label: Vdss
Give the value; after it, write the unit.

INSERT INTO measurements (chemical_smiles, observed_value) VALUES
  ('C[C@@H](C1CC1)N1Cc2cc(-c3ccn4nc(N)c(C(=O)N[C@H]5CC[C@@](C)(O)CC5)c4n3)cc(OC(F)(F)F)c2C1=O', '3.77 L/kg');

Next:
Exercise: Please report the measured Vdss for `C[C@@H](C1CC1)N1Cc2cc(-c3ccn4nc(N)c(C(=O)N[C@H]5CC[C@@](C)(O)CC5)c4n3)cc(OC(F)F)c2C1=O`
Key: 3.69 L/kg
